Listed binders paired with reported Inhibition of binding (%)
# tested.system: hCMV gH + gL + UL128 + UL130 + UL131A (co-expressed in HEK293T cells) (human cytomegalovirus), P12824
# test.protocol: competitor: 1F11-biotin; cell staining
# condition.label: remark: other sources report otherwise
readout: Inhibition of binding (%)

[[record]]
binder = "10F7 (antibody, V domains shown) VH: EVQLVESGGGLVQPGRSLRLSCTASGFTFGDYAMSWFRQAPGKGLEWVGFIRSKAYGGTTEYAASVKGRFTISRDDSKSIAYLQMNSLKTEDTAVYYCTRASSLLWLLNPQPNFDYWGQGTLVTVSS VL: SYVLTQPPSVSVAPGQTARITCGGNNIGSNNVHWYQQKPGQAPVLVVYDDSDRPSGIPERFSGSNSGNTATLTISRVEAGDEADYYCQVWDSSSDHPVFGGGTKLTVL"
readout = "Inhibition of binding (%)"
reported = "100%"

[[record]]
binder = "7I13 (antibody, V domains shown) VH: QVQLVESGGGVVQPGRSLRLSCAASGFTFSNYGMHWVRQGPGKGLEWVAVISYDASSKYYTDSVQGRFTISRDNSKNTLFLQMNSLRGEDTAVYYCAKALRYLDWFLSDPFDYWGQGTLVTVSS VL: EIVLTQSPGTLSLSPGERATLSCRASQSVSSDFLAWYQQKPGQAPRLLIYGASSRATGIPDRFSGSGSGTDFTLTISRLEPEDFAVYYCQQYAASPPFGQGTRLEIK"
readout = "Inhibition of binding (%)"
reported = "0%"

[[record]]
binder = "4N10 (antibody, V domains shown) VH: QVQLVQSGAEVKKPGSSVRVSCKASGGTFSSYVIIWVRQAPGQGLEWMGGVIPIFDTVNYAQKFQGRVTITADESTSTAYMELSSLKSEDTAVYYCARGILAYCGGDCYNTPYGMDVWGQGTTVTVSS VL: DIQMTQSPSILSASVGDRVTITCRASQSISSWLAWYQQKPGKAPKLLIYKASSLEIGVPSRISGSGSGTEFTLTISSLQPDDFATYYCQQYNSSWTFGQGTKVEIK"
readout = "Inhibition of binding (%)"
reported = "0%"

[[record]]
binder = "2C12 (antibody, V domains shown) VH: QITLRESGPTLVKPTQTLTLTCTFSGFSLNTNGVGVGWIRQPPGKALEWLALIYWNGNEGYSPSLKSRLTITKDTSKNQVVLTMTNMDPVDTATYYCVHWPQGLTTVTRLAFDIWGQGTMVTVSS VL: QSALTQPRSVSGSPGQSVTISCTGTTSDVGRYNFVSWYQQHPGKAPKLLMYDVSQRPSGVPSRFSGSKSGNTASLTISGLQAEDEAVFYCCSYAGGNFFSYVFGTGTKVTVL"
readout = "Inhibition of binding (%)"
reported = "0%"

[[record]]
binder = "9I6 (antibody, V domains shown) VH: EVQLVQSGAEVKKPGESLKISCRESGDTFPAYWIAWVRQMPGKGLEWMGIIYPIDSETTYSPSFQGQVTISADKSINTAYLQWSSLKASDSAIYYCARGTSTGLREAFHIWGQGTMVTVSS VL: DVVMTQSPLSLAVTLGQPAYISCRSSQSLGYSDGNTYLNWFQQRPGQSPRRLIYEVSNRDSGVPDRFSGSGSGTDFTLKISRVEAEDVGTYYCMQGTHWPPMCSFGQGTKLEIK"
readout = "Inhibition of binding (%)"
reported = "0%"

[[record]]
binder = "8J16 (antibody, V domains shown) VH: QVQLQESGPGLVKPSETLSLTCSVSGGFTSSYYWSWIRQAPGKGLEWIGYVYYGESTDYNPSLKSRATISIDTSKNQFSLKLSSVTAADTAVYYCAREVDKRGFDYWGQGALVTVSS VL: EIVLTQSPGTLSLSPGERATLSCRASQSVSGGYLAWYQQEPGQAPRLVIYGASSRATGIPDRFSASGSGTDFTLTITRLEPEDFAVYYCQQYGRTPLTFGGGTKVEIK"
readout = "Inhibition of binding (%)"
reported = "0%"

[[record]]
binder = "4I22 (antibody, V domains shown) VH: QVQLVESGGGVVQPGRSLRLSCVASGFTFSSYAMHWVRQAPGKGLEWVAVISYDGDNKFYADSVKGRFRISRDTSKNTLYLEMNSLRAADTAIYYCAREELVGLMPPYYNYGLDVWGQGTTVTVSS VL: QSVLTQPPSVSAAPGQKVTISCSGSNSNIGNNYVSWYQQLPGRAPKLLIYDNDHRPSGIPDRFSGSKSGTSATLVITGLQTGDEADYYCETWDTSLSAAVVFGGGTKLTVL"
readout = "Inhibition of binding (%)"
reported = "100%"

[[record]]
binder = "15D8 (antibody, V domains shown) VH: EVQLVQSGAEVKKPGESLKISCQASGYSFTNYWIAWVRQMPGKGLEWMGIIYPGDSDIKYSPSFRGQVTISADKSISNAFLQWRSLRASDTAMYYCARHAIRGDGFDYWGQGTLVTVSS VL: SYELTQPPSVSVSPGQTATITCSGDKLGEKYACWYQQKPGQSPVLVMYQDTKRPSGIPERFSGSNSGNTATLTISGTRAMDEADYYCQAWDTNTVIFGGGTKLTVL"
readout = "Inhibition of binding (%)"
reported = "0%"

[[record]]
binder = "8L13 (antibody, V domains shown) VH: QVQLLESGGGVVQPGRSLRLSCAASGFTFSNYGMHWVRQAPGKGLEWVAVIWNDGSKKYYAESVKGRFTISRDNSKNTVYLQMNSLRAEDTAVYYCARDEGVQMVFAMPDYGMDVWGQGTTVTVSS VL: SYELTQPPSVSVSPGQTASITCSGDKLGDKFACWYQQRPGQSPILVIYQDSKRPSGIPERFSGSNSGNTATLTIRGTQAMDEADYYCQAWDSSTAHYVFGTGTKVTVL"
readout = "Inhibition of binding (%)"
reported = "100%"

[[record]]
binder = "10P3 (antibody, V domains shown) VH: EVQLVESGGGLVRPGGSLRLSCAASGFTFHNYRMNWVRQAPGKGLEWVANIKQDGSEKSYVDSVRGRFTTSRDNSKNSLYLQINSLRAEDTAVYYCARGEGYTYGVVYSYSAMDVWGQGTTVIVSS VL: SYELTQPPSVSVSPGQTARITCSGNVLPNQYASWYQQKPGQAPVLVIYKDTERPSGIPGRFSGSSSGTTVTLTISGVQAEDEADYYCQSADSSGADYVFGTGTKVTVL"
readout = "Inhibition of binding (%)"
reported = "0%"


Reference source for all entries: patent US20170129940A1
